system.under.test: Hepatocyte growth factor receptor (Homo sapiens)
Sequence (P08581 whole entry, the tested form may be a part): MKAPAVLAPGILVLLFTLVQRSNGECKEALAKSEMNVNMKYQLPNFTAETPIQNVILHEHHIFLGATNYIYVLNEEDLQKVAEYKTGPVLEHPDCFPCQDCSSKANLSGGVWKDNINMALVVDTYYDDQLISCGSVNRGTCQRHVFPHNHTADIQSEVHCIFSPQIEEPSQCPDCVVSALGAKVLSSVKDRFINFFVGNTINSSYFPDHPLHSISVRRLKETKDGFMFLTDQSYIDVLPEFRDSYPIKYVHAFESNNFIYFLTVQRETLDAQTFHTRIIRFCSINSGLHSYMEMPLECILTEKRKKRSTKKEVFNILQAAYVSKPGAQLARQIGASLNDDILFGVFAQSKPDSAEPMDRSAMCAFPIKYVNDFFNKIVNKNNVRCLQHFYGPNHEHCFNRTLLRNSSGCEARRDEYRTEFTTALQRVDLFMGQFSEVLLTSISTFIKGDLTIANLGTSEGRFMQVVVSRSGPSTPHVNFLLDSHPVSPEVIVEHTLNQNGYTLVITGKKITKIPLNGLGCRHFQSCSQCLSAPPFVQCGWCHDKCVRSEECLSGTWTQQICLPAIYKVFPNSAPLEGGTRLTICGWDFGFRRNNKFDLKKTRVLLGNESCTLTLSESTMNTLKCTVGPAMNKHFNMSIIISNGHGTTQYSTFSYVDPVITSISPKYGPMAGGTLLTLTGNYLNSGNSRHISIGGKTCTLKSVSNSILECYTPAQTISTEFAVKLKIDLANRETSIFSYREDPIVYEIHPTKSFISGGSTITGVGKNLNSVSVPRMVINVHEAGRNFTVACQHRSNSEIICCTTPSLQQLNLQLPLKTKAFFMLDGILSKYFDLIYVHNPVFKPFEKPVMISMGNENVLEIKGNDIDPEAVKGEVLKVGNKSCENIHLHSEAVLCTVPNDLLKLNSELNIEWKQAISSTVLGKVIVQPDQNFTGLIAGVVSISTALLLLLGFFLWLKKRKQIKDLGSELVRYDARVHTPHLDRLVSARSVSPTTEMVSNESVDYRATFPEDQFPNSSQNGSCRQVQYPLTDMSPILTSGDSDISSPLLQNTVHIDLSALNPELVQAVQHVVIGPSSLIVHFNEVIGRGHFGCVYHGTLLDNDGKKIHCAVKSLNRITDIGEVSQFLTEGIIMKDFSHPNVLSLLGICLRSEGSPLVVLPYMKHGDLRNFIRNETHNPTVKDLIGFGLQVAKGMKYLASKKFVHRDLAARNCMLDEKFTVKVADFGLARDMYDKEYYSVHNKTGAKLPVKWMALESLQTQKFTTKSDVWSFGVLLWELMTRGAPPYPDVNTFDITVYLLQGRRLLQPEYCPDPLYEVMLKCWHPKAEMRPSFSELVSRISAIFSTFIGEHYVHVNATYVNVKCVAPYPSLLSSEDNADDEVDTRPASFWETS
assay.remarks: Inhibition of recombinant human His-tagged c-Met cytoplasmic domain (956 to 1390 residues) expressed in baculovirus expression system using poly (Glu,Tyr)4:1 as substrate after 60 mins by spectrophotometric analysis
observation.type: pIC50
Note on pIC50: it is the negative log10 of concentration, concentration in mol/L.

[in] Would you kindly share the measured pIC50 for Cn1cc(-c2ccc(=O)n(CCOc3ccnc4cc(OCc5ccc(/C=C/C(=O)Nc6ccccc6N)cc5)ccc34)n2)cn1 ?
[out] 8.96

[in] Which pIC50 reading was recorded for the molecule Cn1cc(-c2ccc(=O)n(CCOc3ccnc4cc(OCCCC(=O)NO)ccc34)n2)cn1 ?
[out] 9.00

[in] Entry O=c1ccc(-n2ccc3ccc(F)cc32)nn1CCOc1ccnc2cc(OCCCN3CCOCC3)ccc12 : reported pIC50 = ?
[out] 9.08

[in] Which pIC50 is listed for Cn1cc(-c2ccc(=O)n(CCOc3ccnc4cc(OCCCCCS)ccc34)n2)cn1 ?
[out] 8.82

[in] Dear colleague, I am looking for the recorded pIC50 of the following molecule: Cn1cc(-c2ccc(=O)n(CCOc3ccnc4cc(OCc5ccc(CCC(=O)Nc6ccccc6N)cc5)ccc34)n2)cn1
[out] 8.29

[in] So what does the record say about pIC50 for Cn1cc(-c2ccc(=O)n(CCOc3ccnc4cc(OCCCOc5ccc(C(=O)Nc6ccccc6N)nc5)ccc34)n2)cn1 ?
[out] 9.15

[in] Which pIC50 value belongs to Cn1cc(-c2ccc(=O)n(CCOc3ccnc4cc(Nc5ccc(C(=O)Nc6ccccc6N)nc5)ccc34)n2)cn1 ?
[out] 8.43

[in] # pIC50 lookup, item Cn1cc(-c2ccc(=O)n(CCOc3ccnc4cc(OCCCCCCC(=O)NO)ccc34)n2)cn1
[out] 9.27

---

system.under.test: Hepatocyte growth factor receptor (Homo sapiens)
assay.remarks: Inhibition of recombinant human His-tagged c-Met cytoplasmic domain (956 to 1390 residues) expressed in baculovirus expression system using poly (Glu,Tyr)4:1 as substrate after 60 mins by spectrophotometric analysis
Task for the reader: assign each of the following compounds its reported IC50.
Numeric answer only, unit nM assumed.

[in] Look at this compound and give its reported IC50. Cn1cc(-c2ccc(=O)n(CCOc3ccnc4cc(OCCCCCC(=O)NO)ccc34)n2)cn1
[out] 0.73

[in] State the recorded IC50 for this entry: Cn1cc(-c2ccc(=O)n(CCOc3ccnc4cc(OCc5ccc(/C=C/C(=O)Nc6ccccc6N)nc5)ccc34)n2)cn1
[out] 0.63

[in] Need IC50 of Cn1cc(-c2ccc(=O)n(CCOc3ccnc4cc(OCc5ccc(C(=O)Nc6ccccc6N)cc5)ccc34)n2)cn1 , thanks.
[out] 0.44

[in] Could you share which IC50 value was measured for CC(=O)CCCCCOc1ccc2c(OCCn3nc(-c4cnn(C)c4)ccc3=O)ccnc2c1 ?
[out] 1

[in] I am curious: what IC50 value has been reported for CNC(=O)CCCCCOc1ccc2c(OCCn3nc(-c4cnn(C)c4)ccc3=O)ccnc2c1 ?
[out] 1.2

[in] I have this compound here, Cn1cc(-c2ccc(=O)n(CCOc3ccnc4cc(OCCCCCC(=O)Nc5ccccc5N)ccc34)n2)cn1 , and I need its recorded IC50.
[out] 0.96

[in] Give its IC50 value. Item: Cn1cc(-c2ccc(=O)n(CCOc3ccnc4cc(C(=O)Nc5ccccc5N)ccc34)n2)cn1
[out] 37

[in] // query IC50 value for entry Cn1cc(-c2ccc(=O)n(CCOc3ccnc4cc(-c5ccc(C(=O)Nc6ccccc6N)s5)ccc34)n2)cn1
[out] 1.3

[in] Please look up its IC50: Cn1cc(-c2ccc(=O)n(CCOc3ccnc4cc(OCCCCC(=O)NO)ccc34)n2)cn1
[out] 0.96
